Listed below: kinact/KI values for each entry.
molecular target: ICE (IL-1β protease) (Homo sapiens); assay: enzyme assay, second order rates of inactivation of ICE; format: biochemical; conditions: in vitro; read-out: kobs/[I] (IL-1β protease inhibition, second order rate of inactivation)
Sequence (P29466 120-297 limits assumed): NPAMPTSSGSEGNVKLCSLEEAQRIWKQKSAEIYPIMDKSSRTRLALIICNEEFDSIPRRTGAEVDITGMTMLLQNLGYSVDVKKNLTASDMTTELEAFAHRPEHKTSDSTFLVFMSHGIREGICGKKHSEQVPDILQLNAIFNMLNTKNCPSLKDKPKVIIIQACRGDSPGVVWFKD
Sequence (P29466 317-404 limits assumed): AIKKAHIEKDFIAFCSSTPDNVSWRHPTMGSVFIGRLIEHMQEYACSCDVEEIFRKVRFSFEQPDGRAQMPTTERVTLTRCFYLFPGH

Illustrative cases are given below, each with its answer.
So, `O=C(O)C[C@H](NC(=O)[C@@H]1CCCN2C(=O)CC[C@H](NC(=O)c3ccc4[nH]cnc4c3)C(=O)N12)C(=O)COC(=O)c1c(Cl)cccc1Cl` ? Its kinact/KI was > 10000 M⁻¹ s⁻¹

Just so you know, measured kinact/KI for `CN(C)Cc1ccc(C(=O)N[C@H]2CCC(=O)N3CCC[C@@H](C(=O)N[C@@H](CC(=O)O)C(=O)COc4cc(C(F)(F)F)nn4-c4ccccn4)N3C2=O)cc1` came out at > 10000 M⁻¹ s⁻¹

***
kinact/KI for `CN(C)Cc1ccc(C(=O)N[C@H]2CCC(=O)N3CCC[C@@H](C(=O)N[C@@H](CC(=O)O)C(=O)COc4cc(C(F)(F)F)nn4-c4ccc(Cl)cc4)N3C2=O)cc1` is > 10000 M⁻¹ s⁻¹
